// provenance: patent US20250025451A1

tested on: 301 cancer cell lines from different tumor types; experiment: 2D cell viability inhibition assay, broad cancer cell line panel (OncoPanel; CellTiter-Glo); type: cell-based; conditions: Homo sapiens, ONS-76, 168 h, ONS76 (central nervous system, NS)
Recorded Metric: EC50

> print(dat)
                            molecule.smiles   result
1  CC(C)c1ccc(N(C)c2ccc3c(c2)OCC[C@H]3CNc2cnccc2C(=O)O)cc1  ≥ 10 µM

----------
system: HT-29; assay: cell-proliferation assay (BrdU, CTG), HT-29; type: cell-based; conditions: HT-29, human colorectal adenocarcinoma, 168 hours, mean
pIC50: −log10 of the molar value.
Recorded Metric: pIC50

> print(dat)
                            molecule.smiles  target.under.test  result.number
1  CC(C)c1ccc(N(C)c2ccc3c(c2)OCC[C@H]3CNc2cnccc2C(=O)O)cc1              HT-29           7.63
